- SYSTEM: TYK2-JH2 (aa 575-869, in-house) protein (Homo sapiens)
- Construct: TYK2-JH2 (aa 575-869, in-house) protein; made in house
- Sequence (P29597 575-869): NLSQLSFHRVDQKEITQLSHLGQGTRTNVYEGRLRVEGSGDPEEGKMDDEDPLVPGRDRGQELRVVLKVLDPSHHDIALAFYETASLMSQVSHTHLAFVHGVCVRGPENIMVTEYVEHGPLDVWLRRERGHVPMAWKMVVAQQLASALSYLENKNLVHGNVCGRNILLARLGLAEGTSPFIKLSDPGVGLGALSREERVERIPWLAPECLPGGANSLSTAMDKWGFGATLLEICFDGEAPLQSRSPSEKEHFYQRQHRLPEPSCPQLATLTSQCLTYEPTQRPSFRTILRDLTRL
- TEST_PROTOCOL: TYK2-JH2 biochemical assay (HTRF probe displacement)
- Type: binding
- CONDITION_DESCRIPTION: Biochemical assay; read-out: TYK2-JH2 IC50
Hi! Just check whether IC50 is below 0.03 nM. Below gives yes, equal or above gives no.

Below, 2 compounds whose answers are already recorded.
{"columns": ["CHEMICAL_STRUCTURE", "DISCRETE_LABEL"],
 "data": [
  ["CC(=O)Nc1cc(Nc2cc(Cl)cc(S(C)(=O)=O)n2)c(-c2ccn(C)n2)cn1", "yes"],
  ["CC(=O)Nc1cc(Nc2cc(OC(F)F)cc(S(C)(=O)=O)n2)c(-c2ccn(C)n2)cn1", "yes"]
]}

Strictly below 0.03 nM in IC50? `CO[C@@H]1CCCN(c2cc(Nc3cc(NC(C)=O)ncc3-c3ccc4c(n3)OCC(C)(C)O4)nc(S(C)(=O)=O)c2)C1` yes

Does this compound meet the criterion IC50 < 0.03 nM? `CC(=O)Nc1cc(Nc2cc(C3(C#N)CC3)cc(S(C)(=O)=O)n2)c(-c2ccc3c(n2)OCC(C)(C)O3)cn1` no

Below 0.03 nM on IC50? Entry `COCCOc1cc(Nc2cc(NC(C)=O)ncc2-c2ccc(C(F)(F)F)cn2)nc(S(C)(=O)=O)c1` no

Hello, I'm reviewing records and need to know if IC50 of `CC(=O)Nc1cc(Nc2cc(OCC3CC3)cc(S(C)(=O)=O)n2)c(-c2ccc(C(C)(C)O)cn2)cn1` is below 0.03 nM. Could you check? yes

State whether 0.03 nM exceeds IC50 recorded for `[2H]C([2H])([2H])Oc1cc(Nc2cc(NC(C)=O)ncc2-c2ccc3c(n2)OCC(C)(C)O3)nc(S(C)(=O)=O)c1` . no

In the record for `CC(=O)Nc1cc(Nc2cc(C3CC3)cc(S(C)(=O)=O)n2)c(-c2ccc(F)cn2)cn1` , is IC50 less than 0.03 nM? yes

Bench note: check whether `COCCOc1ccc(-c2cnc(NC(C)=O)cc2Nc2cc(OC)cc(S(C)(=O)=O)n2)nc1` shows IC50 below 0.03 nM no

A record lists `CC(=O)Nc1cc(Nc2cc(N3CC(C)(O)C3)cc(S(C)(=O)=O)n2)c(-c2ccc3c(n2)OCC(C)(C)O3)cn1` . Is its IC50 below 0.03 nM? no

Find out if reported IC50 for `COC1CN(c2cc(Nc3cc(NC(C)=O)ncc3-c3ccc4c(n3)OCC(C)(C)O4)nc(S(C)(=O)=O)c2)C1` is less than 0.03 nM yes

---

Reported pIC50 by item:
- SYSTEM: TYK2-JH2 (aa 575-869, in-house) protein (Homo sapiens)
- Construct: TYK2-JH2 (aa 575-869, in-house) protein; made in house
- TEST_PROTOCOL: TYK2-JH2 biochemical assay (HTRF probe displacement)
- Type: binding
- CONDITION_DESCRIPTION: Biochemical assay; read-out: TYK2-JH2 IC50
Please keep in mind that pIC50 is minus log10 of the molar concentration; only the number is needed.

Would you please look over these solved cases?
{"columns": ["COMPOUND", "PROPERTY_MEASURED", "EXPERIMENTAL_VALUE"],
 "data": [
  ["CCn1ccc(-c2cnc(NC(C)=O)cc2Nc2cc(OCCO)cc(S(C)(=O)=O)n2)n1 [Example M19]", "pIC50", 10.49],
  ["CS(=O)(=O)c1cccc(Nc2cc(N)ncc2-c2ccccn2)c1 [Example B19]", "pIC50", 7.74],
  ["CC(=O)Nc1cc(Nc2cc(OC(C)C)cc(S(C)(=O)=O)n2)c(-c2cc3n(n2)CCOC3)cn1 [Example Q6]", "pIC50", 10.55]
]}

Please find the next compound below.
What does the record list as pIC50 for CC(=O)Nc1cc(Nc2ccc(C3CCOCC3)c(S(C)(=O)=O)n2)c(-c2ccc3c(n2)OCC(C)(C)O3)cn1 [Example Q79] ? 9.49

Reference for the values: patent US20240043435A1
